target: Recombinant human CYP51A1 (lanosterol-14a-demethylase) (Homo sapiens (Human)); test: Inhibition of CYP51A1, fluorescent substrate BOMCC; conditions: recombinant human CYP51A1 coexpressed with CYP reductase in bacterial membranes, 8-point concentration-response, read-out: CYP51 IC50
Sequence (Q16850 whole entry): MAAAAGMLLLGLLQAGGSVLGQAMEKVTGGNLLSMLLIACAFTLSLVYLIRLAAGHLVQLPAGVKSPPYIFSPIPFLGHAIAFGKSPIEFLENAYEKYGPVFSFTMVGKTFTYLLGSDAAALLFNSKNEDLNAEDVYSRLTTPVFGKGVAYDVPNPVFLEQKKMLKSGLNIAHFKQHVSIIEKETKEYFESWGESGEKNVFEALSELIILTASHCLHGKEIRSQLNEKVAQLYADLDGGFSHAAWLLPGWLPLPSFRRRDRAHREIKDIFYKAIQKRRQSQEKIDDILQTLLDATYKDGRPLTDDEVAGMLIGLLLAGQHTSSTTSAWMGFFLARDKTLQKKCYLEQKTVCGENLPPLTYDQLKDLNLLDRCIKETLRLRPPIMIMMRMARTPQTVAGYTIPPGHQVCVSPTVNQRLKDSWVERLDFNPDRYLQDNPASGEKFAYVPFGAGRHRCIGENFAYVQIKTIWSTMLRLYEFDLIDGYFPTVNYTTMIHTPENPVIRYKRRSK
assay_readout: IC50

The following compounds have reported results that may help.
CC(C)(C)OC(=O)NCCN(C[C@@H](O)c1cccnc1)C(=O)Cc1ccc(C(F)(F)F)nc1 | ≤ 100 nM
CCCN(C[C@@H](O)c1cccnc1)C(=O)Cc1cncc(C(F)(F)F)c1 | > 1000 nM
CCCN(CC(O)c1cccnn1)C(=O)Cc1ccc(Cl)c(Cl)c1 (centres unmarked) [compound 97] | ≤ 100 nM
CCCN(CC(O)c1ccc(=O)[nH]c1)C(=O)Cc1ccc(Cl)c(Cl)c1 (centres unmarked) | > 1000 nM
CCCN(C[C@@H](O)c1cccnc1)C(=O)Cc1ccc(OC(F)(F)F)cn1 | ≤ 100 nM

# per-item lookup of IC50; items listed below
1. CCCN(C[C@@H](O)c1cccnc1)C(=O)Cc1cnc(C(F)(F)F)nc1
2. CCCN(CC(O)c1cccnn1)C(=O)Cc1ccc(C(F)(F)F)nc1 (single isomer, unassigned) [compound 68]
3. CC1(N(CC(O)c2cccnc2)C(=O)Cc2ccc(Cl)c(Cl)c2)CC1 (centres unmarked)

≤ 100 nM
> 1000 nM
100 to 1000 nM
